Subject of test: κ opioid receptor (Homo sapiens, UniProt P41145)
Test protocol: κ opioid competitive radioligand binding
Conditions used: read-out: κ Ki (µM) ± SEM
Entries and their Ki values follow.

Compound	Result unit	Ki
COc1cc2c(cc1O)[C@@H](Cc1ccc(O)cc1)N(C)CC2	µM	0.9
COc1cc2c(cc1OC)C(Cc1ccc(O)cc1)N(C)CC2 (centres unmarked)	µM	13

====

Each entry below lists one item and its recorded Ki value.
Subject of test: UniProt P35372
Test protocol: μ opioid competitive radioligand binding
Conditions used: read-out: μ Ki (µM) ± SEM

Compound	Ki
COc1cc2c(cc1O)[C@@H](Cc1ccc(O)cc1)N(C)CC2	4 µM
COc1cc2c(cc1OC)C(Cc1ccc(O)cc1)N(C)CC2 (centres unmarked)	2.7 µM
